- Tested on: HL-1
- test.description: relative cell viability (CellTiter-Glo) vs DMSO control (% of DMSO control); higher = more viable cells
- condition: oxygen condition: normoxia 72 h; 200 nM
Counter-ions that a name gives are not always drawn.
readout.name: relative cell viability
No unit in the answer, only the number.

# compound, relative cell viability
measured = [
    ("O=C1CN2Cc3c(ccc(Cl)c3Cl)N=C2N1 [Anagrelide HCl]", 100),
    ("CCN(CC)CCOC(=O)c1ccc(N)cc1 [Procaine]", 104),
    ("CCCC1O[C@@H]2C[C@H]3[C@@H]4CCC5=CC(=O)C=C[C@]5(C)[C@H]4[C@@H](O)C[C@]3(C)[C@]2(C(=O)CO)O1 (some centres undefined) [Budesonide]", 83.5),
]

Asked: Lab note: need relative cell viability for CN(C)[C@@H](CCOc1cccc2ccccc12)c1ccccc1 [Dapoxetine hydrochloride] on HL-1, anyone have it?
Given back: 103

---

- Test system: HL-1
- test.description: relative cell viability (CellTiter-Glo) vs DMSO control (% of DMSO control); higher = more viable cells
- condition: oxygen condition: hypoxia 48 h (1% O2) + reoxygenation 24 h; 1000 nM
Where a name gives a salt, the structure may show the parent alone.
# relative cell viability values compiled below
No unit in the answer, only the number.

Example entries begin here.
# compound, relative cell viability
records = [
    ("CC[C@H]1OC(=O)[C@H](C)[C@@H](O[C@H]2C[C@@](C)(OC)[C@@H](O)[C@H](C)O2)[C@H](C)[C@@H](O[C@@H]2O[C@H](C)C[C@H](N(C)C)[C@H]2O)[C@](C)(OC)C[C@@H](C)C(=O)[C@H](C)[C@@H](O)[C@]1(C)O", 105),
    ("CN(C)CCc1c[nH]c2ccc(CS(=O)(=O)N3CCCC3)cc12 [Almotriptan malate]", 97.6),
    ("C[C@H]1c2cccc(O)c2C(=O)C2=C(O)[C@]3(O)C(=O)C(C(N)=O)=C(O)[C@@H](N(C)C)[C@@H]3[C@@H](O)[C@@H]21 [Doxycycline HCl]", 105),
    ("Nc1[nH]cnc2ncnc1-2 [Adenine sulfate]", 105),
    ("CCCCOc1cc(C(=O)NCCN(CC)CC)c2ccccc2n1 [Dibucaine HCL]", 108),
]

Asked: What does the record list as relative cell viability for CC(=O)NS(=O)(=O)c1ccc(N)cc1 [sulfacetamide sodium] ?
Given back: 106

Asked: Thanks! And `CCCCc1nc(Cl)c(CO)n1Cc1ccc(-c2ccccc2-c2nnn[nH]2)cc1` ?
Given back: 114

---

- System: HL-1
- test.description: relative cell viability (CellTiter-Glo) vs DMSO control (% of DMSO control); higher = more viable cells
- condition: oxygen condition: normoxia 72 h; 200 nM
Structures can show the parent of a compound that is named as a salt.
readout.name: relative cell viability
No unit in the answer, only the number.

Example entries begin here.
# molecule, target, relative cell viability
data = [
    ("CC(COc1ccccc1)N(CCCl)Cc1ccccc1 (stereo not given) [Phenoxybenzamine HCl]", "HL-1", 101),
    ("Nc1ccn([C@@H]2O[C@H](CO)[C@@H](O)C2(F)F)c(=O)n1 [Gemcitabine HCl]", "HL-1", 4.75),
    ("Oc1ccc(OC2CCCCO2)cc1 (stereo not given) [Deoxyarbutin]", "HL-1", 102),
]

Asked: What does the record list as relative cell viability for CNS(=O)(=O)CCc1ccc2[nH]cc(C3CCN(C)CC3)c2c1 [Naratriptan HCl] ?
Given back: 103

Asked: Thanks! And C[C@@](Cc1ccc(O)c(O)c1)(NN)C(=O)O [Carbidopa] ?
Given back: 96.4
